Cited source for all entries: PubChem BioAssay

# Measurement description: reduction of polyQ htt aggregates in cells – imaging, exon1htt(103Q)mCFP cells, high-content imaging, primary screen (AID 483);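 also: compound exposure lasted 3 days before fixation; percent of the per-plate median nuclei count of sample wells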
# Conditions: exon1htt(103Q)mCFP cell line, aggregate imaging, at 2 µM; measured here: cell count, toxicity
Recorded endpoint: nuclei count (%)
Give bare numbers, in %.

// worked examples, nuclei count included
# Compound, Unit annotation, nuclei count
rows = [
    ("O=C(OCC(=O)c1ccc[nH]1)c1ccc(S(=O)(=O)N2CCCCC2)cc1", "%", 96.8),
    ("O=C(Cn1cnc2c(cnn2-c2ccc(F)cc2)c1=O)N1CCCc2ccccc21", "%", 104),
    ("COCCn1c(-c2ccco2)nc2nc3ccccc3nc21", "%", 69.1),
    ("COC(=O)Cn1c(CN2CCN(c3ccccc3F)CC2)nc2c1c(=O)n(C)c(=O)n2C", "%", 90.2),
    ("O=C(OC1CCOC1=O)c1ccc(S(=O)(=O)N2CCCCCC2)cc1 (stereo unspecified)", "%", 92.8),
]

State recorded nuclei count for all listed compounds.
1. CC(C)CC(=O)Nc1ccccc1-c1nnn(CC(=O)N2CCOCC2)n1
2. COc1ccc(C(=O)Nc2ccc(S(=O)(=O)NC(C)=O)cc2)cc1
3. CCOC(=O)Cc1nnc(NC(=O)c2ccccc2OCC)s1

A)
1. 112
2. 92.1
3. 102

State recorded nuclei count for all listed compounds.
1. Cc1cnc(C(=O)Nc2nnc(C(C)C)s2)cn1
2. CCOC(=O)N1CCN(CC(=O)Nc2cc(C)nn2-c2nc3ccccc3s2)CC1

A)
[107, 101]

Q) Form field: reported nuclei count of `O=C(COC(=O)CCC1CCCC1)Nc1ccc(Cl)cn1`
A) 115

====

# Assayed system: Voltage-gated potassium channel subunit beta-2 (Rattus norvegicus)
# Measurement description: inhibitors of rat Kvbeta2 reductase activity – biochemical, NADPH fluorescence, primary screen (AID 622);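 also: slope of raw intensity against log time taken from 70 to 1610 s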
# Conditions: recombinant KvBeta, 4-cyanobenzaldehyde reduction, at 10 µM, stronger effect = higher value
Recorded endpoint: fluorescence slope
Give bare numbers.

Each compound below has a reported value. Please supply its fluorescence slope.
1. CCOc1ccc(-c2cn(S(=O)(=O)c3cccc4nsnc34)nc2N)cc1
2. CCN(CC)CCCN1C(=O)C(O)=C(C(=O)c2ccco2)C1c1ccc(C)o1 (stereo unspecified)
3. COc1ccc(OCCCC(=O)Nc2nncs2)cc1
4. COc1cc(OC)nc(NC(=O)CSc2nc3ccccc3o2)n1
5. O=C(Nc1cnn(C23CC4CC(CC(C4)C2)C3)c1)c1cnn2c(C(F)(F)F)cc(-c3ccco3)nc12

A)
[-0.484, -0.607, -0.294, -0.609, -0.498]

====

# Measurement description: endothelial E-selectin expression blockers – imaging, HUVEC, immunofluorescence, MLSMR starter and 10KST1 sets, primary screen (AID 487);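 also: signal is fraction of cell area covered by stained E-selectin grains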
# Conditions: HUVEC TNFalpha-induced E-selectin immunofluorescence imaging, at 2 µM; stronger effect = higher value
Please use met whenever inhibition is not below -30%, and not met whenever it is.

Here's what some known entries look like.
# Molecule, Class assignment
measured = [
    ("Cc1cc(C)cc(-n2nnc(C(=O)NCc3ccco3)c2N)c1", "not met"),
    ("CCC(C)(C)n1nnnc1C(c1cc2cc(C)ccc2[nH]c1=O)N1CCCC1 (stereo unspecified)", "not met"),
    ("Cn1c(SCC(N)=O)nnc1C1CCN(C(=O)NCc2ccccc2)CC1", "not met"),
]

Q) Item CC(=O)c1ccc(OCC(O)CN2CCN(CCO)CC2)cc1 (stereo unspecified) with inhibition of -30% or above?
A) met

Q) Given CCOC(=O)C1=C(C)NC2=C(C(=O)CC(C)(C)C2)C1c1ccc(N(C)C)cc1 (stereo unspecified) , state whether its inhibition is at least -30%.
A) met

Q) Could you tell me if the measured inhibition of Cc1ccc(C(c2nnnn2CCC(C)C)N2CCN(C)CC2)cc1 (stereo unspecified) reaches -30% or more?
A) not met

Q) Reported inhibition reaches at least -30% for `Cc1ccc2c(c1)CCCN2C(=O)Nc1ccc2c(c1)OCO2` ?
A) not met

Q) Is it the case that `CN(C)CCNC(=O)c1ccc(COCC(F)(F)F)cc1` has inhibition reaching or exceeding -30%?
A) met

Q) Is the recorded value of inhibition equal to or greater than -30% for this molecule? CCOc1cc(C2NC(=O)NC(O)(C(F)(F)F)C2C(=O)c2ccccc2)ccc1OC (stereo unspecified)
A) not met

Q) Evaluate `CC(C)CNC(=O)c1ccccc1NC(=O)c1ccc(CN2CCOCC2)cc1` : inhibition at minimum -30%?
A) met

Q) hey, is inhibition for this one >= -30%? `Cc1ccccc1CSc1nnc(C)c(=O)[nH]1`
A) not met
